assayed.system: Akt1 (Homo sapiens)
Sequence (P31749 whole entry): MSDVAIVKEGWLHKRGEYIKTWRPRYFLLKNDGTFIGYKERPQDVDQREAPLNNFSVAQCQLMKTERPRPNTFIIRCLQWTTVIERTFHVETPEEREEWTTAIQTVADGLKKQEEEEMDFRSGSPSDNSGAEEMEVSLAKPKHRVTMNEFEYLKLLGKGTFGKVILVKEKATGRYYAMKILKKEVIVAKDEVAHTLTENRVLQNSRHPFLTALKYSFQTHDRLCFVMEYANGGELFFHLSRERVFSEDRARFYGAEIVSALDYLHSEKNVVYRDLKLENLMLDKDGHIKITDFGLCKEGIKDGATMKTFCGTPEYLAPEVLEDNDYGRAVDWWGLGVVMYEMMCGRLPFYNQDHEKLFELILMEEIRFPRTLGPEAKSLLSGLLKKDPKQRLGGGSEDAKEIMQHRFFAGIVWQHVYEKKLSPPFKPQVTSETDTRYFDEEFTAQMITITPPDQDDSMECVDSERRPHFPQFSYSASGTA
procedure.summary: Kinetic analysis with HTRF KinEASE (time-dependent IC50), kinetic parameters of inactivation
Format: biochemical
Design: purchased ProQinase
test.settings: mean ± SD, n=3
Form field: k inact (one value per entry).
Quick note: give the figure in min⁻¹, leave out the unit.

Solved entries (count: 3):
- test.smiles: "C=CC(=O)Nc1ccc2[nH]c(=O)n(C3CCN(Cc4ccc(-c5nc6ccccn6c5-c5ccccc5)cc4)CC3)c2c1"
  assayed.system: "Akt1 (Homo sapiens)"
  k inact, min⁻¹: 0.069
- test.smiles: "C=CC(=O)Nc1cccc(-c2cn(C3CCN(Cc4ccc(-c5nc6cc[nH]c(=O)c6cc5-c5ccccc5)cc4)CC3)nn2)c1"
  assayed.system: "Akt1 (Homo sapiens)"
  k inact, min⁻¹: 0.042
- test.smiles: "C=CC(=O)Nc1cc2c(cc1Cl)[nH]c(=O)n2C1CCN(Cc2ccc(-c3nc4ccccn4c3-c3ccccc3)cc2)CC1"
  assayed.system: "Akt1 (Homo sapiens)"
  k inact, min⁻¹: 0.081

Next up:
Per the reported Akt1 (Homo sapiens) data, `C=CC(=O)Nc1cccc(-c2cn(C3CCN(Cc4ccc(-c5nc6ccccn6c5-c5ccccc5)cc4)CC3)nn2)c1` has k inact of 0.071
